Origin of values: patent US20250376519A1

test system: T1, human DLL3 (ACRO, DLL3-H52H4) (human, UniProt Q9NYJ7 27-492)
T1 construct: Bought
T1 sequence: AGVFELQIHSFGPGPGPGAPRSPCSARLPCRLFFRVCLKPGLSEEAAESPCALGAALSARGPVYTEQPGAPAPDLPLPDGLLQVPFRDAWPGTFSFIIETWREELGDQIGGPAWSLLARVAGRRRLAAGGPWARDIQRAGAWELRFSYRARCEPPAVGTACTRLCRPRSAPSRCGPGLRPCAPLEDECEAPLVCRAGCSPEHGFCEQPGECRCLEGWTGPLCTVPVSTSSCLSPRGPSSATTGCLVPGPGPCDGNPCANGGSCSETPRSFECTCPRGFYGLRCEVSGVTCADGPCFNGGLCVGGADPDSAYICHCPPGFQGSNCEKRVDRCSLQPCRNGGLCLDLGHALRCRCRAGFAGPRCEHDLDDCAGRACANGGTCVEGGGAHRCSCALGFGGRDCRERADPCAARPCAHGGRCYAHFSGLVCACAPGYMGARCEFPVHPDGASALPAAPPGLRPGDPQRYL
experiment notes: SPR Biacore 8K, Ab captured on Protein A
For each record, write down the corresponding kon.
Include the unit right after the number.

Lab note: hu6L3H2 (antibody, human IgG1, kappa, V domains shown) VH: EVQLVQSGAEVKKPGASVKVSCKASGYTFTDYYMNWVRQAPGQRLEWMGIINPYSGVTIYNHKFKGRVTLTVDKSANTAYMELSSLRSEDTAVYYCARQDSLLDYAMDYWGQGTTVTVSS VL: DIQMTQSPSSLSASVGDRVTITCHASQGISGNMGWLQQKPGKSFKGLIYHGANLEDGVPSRFSGSGSGADYTLTISSLQPEDFATYYCVQYAQFPYTFGGGTKVEIKR gave kon of 716000 M⁻¹ s⁻¹

Field kon (entry M6CH1 (antibody, human IgG1, kappa, V domains shown, chimeric antibody of mAb6, human IgG1/kappa; also called M6CHI) VH: EVQLQQSGPVLVKPGASVKMSCKASGYTFTDYYMNWVKQSHGKSLEWIGIINPYSGVTIYNHKFKGKATLTVDKSSNTAYMELNSLTSEDSAVYYCARQDSLLDYAMDYWGQGTSVTVSS VL: DILMTQSPSSMSVSLGDTVSITCHASQGISGNMGWLQQKPGKSFKGLIYHGANLEDGVPSRFSGSGSGADYSLTISSLESEDFADYYCVQYAQFPYTFGGGTKLEIKR ) reads 965000 M⁻¹ s⁻¹

Sure, the documented kon for hu6L2H5 (antibody, human IgG1, kappa, V domains shown) VH: EVQLVQSGSELKKPGASVKVSCKASGYTFTDYYMNWVRQAPGQGLEWMGIINPYSGVTIYNHKFKGRFVLSVDKSVSTAYLQISSLKAEDTAVYYCARQDSLLDYAMDYWGQGTTVTVSS VL: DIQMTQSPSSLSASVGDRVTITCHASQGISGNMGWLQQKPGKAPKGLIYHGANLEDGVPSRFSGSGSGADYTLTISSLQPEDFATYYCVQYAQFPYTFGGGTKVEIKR is 810000 M⁻¹ s⁻¹

Briefly, kon measured for hu6L2H6 (antibody, human IgG1, kappa, V domains shown) VH: EVQLVQSGSELKKPGASVKVSCKASGYTFTDYYMNWVRQAPGQGLEWMGIINPYSGVTIYNHKFKGRFVLSVDKSSNTAYLQISSLKAEDTAVYYCARQDSLLDYAMDYWGQGTTVTVSS VL: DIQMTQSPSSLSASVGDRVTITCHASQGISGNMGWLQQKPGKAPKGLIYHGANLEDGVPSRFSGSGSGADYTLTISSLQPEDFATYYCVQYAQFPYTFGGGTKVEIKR : 863000 M⁻¹ s⁻¹

Item: hu30L4H10 (antibody, human IgG1, kappa, V domains shown) VH: EVRLVQSGAEVKKPGASVKVSCKASGYTFTDYYMNWVRQSHGQSLEWMGIINPYTGDTSYNQKFRGRVTLTVDKSASTAYMELSSLRSEDTAVYYCARYHYGPHLEGYFDVWGQGTTVTVSS VL: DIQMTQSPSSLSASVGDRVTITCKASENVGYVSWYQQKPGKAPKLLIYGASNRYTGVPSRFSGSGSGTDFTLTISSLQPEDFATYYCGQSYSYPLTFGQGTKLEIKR | kon: 427000 M⁻¹ s⁻¹

Recorded kon (binder hu30L5H9 (antibody, human IgG1, kappa, V domains shown) VH: EVRLVQSGAEVKKPGASVKVSCKASGYTFTDYYMNWVRQAPGQSLEWIGIINPYTGDTSYNQKFRGRATLTVDKSASTAYMELSSLRSEDTAVYYCARYHYGPHLEGYFDVWGQGTTVTVSS VL: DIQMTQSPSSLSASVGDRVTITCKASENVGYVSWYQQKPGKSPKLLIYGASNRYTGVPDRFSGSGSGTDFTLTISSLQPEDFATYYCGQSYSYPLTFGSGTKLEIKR ): 399000 M⁻¹ s⁻¹

get_value(item= hu98L2H2 (antibody, human IgG1, kappa, V domains shown) VH: EVQLVESGGGLVQPGGSLRLSCAASGFTFSDYGIHWVRQAPGKGLEWVAYISSGGYTIYYADTVKGRFTISRDNAKNSLYLQMNSLRAEDTAVYYCARGDYEDIFYTMDYWGQGTTVTVSS VL: DIQMTQSPSSLSASVGDRVTITCRASRDITKFLNWYQQKPGKAVKLLIYYTSRLHSGVPSRFSGSGSGTDYTLTISSLQPEDFATYYCQQGNTLPWTFGGGTKVEIKR , readout=kon) returns 1.22e+06 M⁻¹ s⁻¹

Entry under test: hu30L1H3 (antibody, human IgG1, kappa, V domains shown) VH: EVRLVQSGAEVKKPGASVKVSCKASGYTFTDYYMNWVRQAPGQSLEWMGIINPYQGDTSYNQKFRGRVTLTVDKSASTAYMELSSLRSEDTAVYYCARYHYGPHLEGYFDVWGQGTTVTVSS VL: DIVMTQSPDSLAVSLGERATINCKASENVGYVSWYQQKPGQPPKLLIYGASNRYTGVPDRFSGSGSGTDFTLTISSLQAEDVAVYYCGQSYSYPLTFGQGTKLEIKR . Its kon was 929000 M⁻¹ s⁻¹

Data point: hu30L5H10 (antibody, human IgG1, kappa, V domains shown) VH: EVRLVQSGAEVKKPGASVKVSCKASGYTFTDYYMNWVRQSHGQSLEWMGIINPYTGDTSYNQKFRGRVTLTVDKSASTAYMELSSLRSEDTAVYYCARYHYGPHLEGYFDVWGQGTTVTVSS VL: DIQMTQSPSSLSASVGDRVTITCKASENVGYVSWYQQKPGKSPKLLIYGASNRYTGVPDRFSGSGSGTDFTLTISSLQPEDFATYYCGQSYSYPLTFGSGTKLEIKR ; kon = 464000 M⁻¹ s⁻¹

Lab note: hu30L1H8 (antibody, human IgG1, kappa, V domains shown) VH: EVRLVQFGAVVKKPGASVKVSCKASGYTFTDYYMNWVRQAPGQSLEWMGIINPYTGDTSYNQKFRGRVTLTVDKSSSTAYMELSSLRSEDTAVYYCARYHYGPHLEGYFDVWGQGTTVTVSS VL: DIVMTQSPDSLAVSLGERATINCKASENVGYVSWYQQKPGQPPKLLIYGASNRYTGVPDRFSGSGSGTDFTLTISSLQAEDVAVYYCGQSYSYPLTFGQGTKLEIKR gave kon of 425000 M⁻¹ s⁻¹
